- system: HLA-A*1101 (Homo sapiens, UniProt P04439, A114D/D185E/E176A/F33Y/L180Q/S129P/T187R)
- assay-details: purified HLA class I binding assay, A*1101
- run-parameters: HIV A03 supermotif peptides; binding value, no unit given
value-type: A*1101 (binding information)
Give bare numbers.

Worked examples, 3 sequences total:
KVYLAWVPAIIK: 2.3000
QIYQEPPKNLK: 0.2900
IVASCDKCQLK: 0.1000

# evaluate next
**Query** Data request, read-out A*1101 (binding information), for `KLTEERWNK`
**Result** 0.2700

====

Task for the reader: assign each of the following compounds its reported pIC50.
- system: HLA-A*0202 (Homo sapiens, UniProt P04439, D140Y/D185E/D98H/E176V/E277Q/G131W/G231S/I119L/I121R/I166T/I218V/L180W/L300P/L318F/N151K/N90K/P208A/P217A/Q67R/Q86G/Q94H/R138H/R169H/T345S)
- assay-details: purified HLA class I binding assay, A*0202
Numbers only, as −log10 of the molar value.

CC[C@H](C)[C@H](NC(=O)[C@@H]1CCCN1C(=O)[C@@H]1CCCN1C(=O)[C@H](CC(N)=O)NC(=O)[C@H](CC(N)=O)NC(=O)[C@@H](NC(=O)[C@@H](N)CCSC)[C@@H](C)O)C(=O)N1CCC[C@H]1C(=O)N[C@H](C(=O)O)C(C)C [Peptide 1261.03]: 5.14
CC[C@H](C)[C@H](NC(=O)[C@H](CC(=O)O)NC(=O)[C@@H](NC(=O)[C@H](C)NC(=O)[C@H](CC(N)=O)NC(=O)[C@H](CC(C)C)NC(=O)[C@H](CC(C)C)NC(=O)[C@@H](N)CO)[C@@H](C)O)C(=O)N[C@@H](C)C(=O)N[C@H](C(=O)O)C(C)C [Peptide 1211.09]: 5.89
CSCC[C@H](NC(=O)[C@H](C)NC(=O)[C@H](CCC(=O)O)NC(=O)[C@H](C)NC(=O)[C@H](CC(C)C)NC(=O)[C@@H](N)C(C)C)C(=O)N[C@@H](CO)C(=O)N[C@@H](CCC(N)=O)C(=O)N[C@H](C(=O)O)C(C)C [Peptide 1069.32]: 7.08

# evaluate next
**Query** Data request, read-out pIC50, for CSCC[C@H](N)C(=O)N[C@@H](C)C(=O)N[C@@H](CO)C(=O)N[C@@H](CC(=O)O)C(=O)N[C@@H](Cc1ccccc1)C(=O)N[C@@H](CC(N)=O)C(=O)N[C@@H](CC(C)C)C(=O)N1CCC[C@H]1C(=O)N1CCC[C@H]1C(=O)N[C@H](C(=O)O)C(C)C [Peptide 1261.15]
**Result** 7.65
